# protocol_notes: Pharmacokinetic study in rats after oral administration of TC extracts (UPLC-MS/MS of plasma)
# stated_conditions: male, Sprague-Dawley, rat, plasma, po, 10 g/kg
measure: MRT inf
Please report the result as a number followed by the unit.

Req: I have this compound here, O=c1oc2c(O)c(O)cc3c(=O)oc4c(O)c(O)cc1c4c23 , and I need its recorded MRT inf.
Resp: 56.5 h

Req: I have this compound here, O=C(O)C[C@@H]1C(=O)O[C@H]2[C@H](OC(=O)c3cc(O)c(O)c(O)c3)[C@@H](OC(=O)c3cc(O)c(O)c4c3[C@H]1[C@H](O)C(=O)O4)[C@H](OC(=O)c1cc(O)c(O)c(O)c1)O[C@@H]2COC(=O)c1cc(O)c(O)c(O)c1 , and I need its recorded MRT inf.
Resp: 76 h

Req: I have this compound here, O=C(O)c1ccc(O)c(O)c1 , and I need its recorded MRT inf.
Resp: 3.39 h

---

Please respond with reported MRT inf for every item in the list.
# protocol_notes: Pharmacokinetic study in rats after oral administration of TC extracts (UPLC-MS/MS of plasma)
# stated_conditions: male, Sprague-Dawley, rat, plasma, po, 10 g/kg
Give your result in h as a bare value.

Req: I have this compound here, CCOC(=O)c1cc(O)c(O)c(O)c1 [Ethyl gallate, ethyl gallate] , and I need its recorded MRT inf.
Resp: 1.6

Req: I have this compound here, O=C(O)C[C@@H]1C(=O)O[C@H]2[C@@H]3OC(=O)c4cc(O)c(O)c(O)c4-c4c(cc(O)c(O)c4O)C(=O)OC[C@H]2O[C@@H](OC(=O)c2cc(O)c(O)c(O)c2)[C@@H]3OC(=O)c2cc(O)c(O)c3c2[C@H]1[C@H](O)C(=O)O3 , and I need its recorded MRT inf.
Resp: 51.8

Req: I have this compound here, O=C(O[C@@H]1O[C@@H]2COC(=O)c3cc(O)c(O)c(O)c3-c3c(cc(O)c(O)c3O)C(=O)O[C@H]([C@H]1O)[C@@H]2O)c1cc(O)c(O)c(O)c1 , and I need its recorded MRT inf.
Resp: 99.4

---

Please respond with reported Measured concentration after storage for every item in the list.
# protocol_notes: Stability of QC samples of the analytes in rat plasma under storage conditions
# Type: physicochemical
# stated_conditions: spiked 40 ng/mL, −80°C for 7 days, n = 6
Please report the result as a number followed by the unit.

Req: I have this compound here, O=C(O)C[C@@H]1C(=O)O[C@H]2[C@H](OC(=O)c3cc(O)c(O)c(O)c3)[C@@H](OC(=O)c3cc(O)c(O)c4c3[C@H]1[C@H](O)C(=O)O4)[C@H](OC(=O)c1cc(O)c(O)c(O)c1)O[C@@H]2COC(=O)c1cc(O)c(O)c(O)c1 , and I need its recorded Measured concentration after storage.
Resp: 47.1 ± 1.6 ng/mL

Req: I have this compound here, O=C(O)c1cc(O)c(O)c(O)c1 , and I need its recorded Measured concentration after storage.
Resp: 41.2 ± 0.8 ng/mL

Req: I have this compound here, O=C(O[C@@H]1O[C@@H]2COC(=O)c3cc(O)c(O)c(O)c3-c3c(cc(O)c(O)c3O)C(=O)O[C@H]([C@H]1O)[C@@H]2O)c1cc(O)c(O)c(O)c1 , and I need its recorded Measured concentration after storage.
Resp: 39.7 ± 2.1 ng/mL

Req: I have this compound here, O=C(O)C[C@H](C(=O)O)[C@H]1c2c(cc(O)c(O)c2O)C(=O)O[C@@H]1C(=O)O , and I need its recorded Measured concentration after storage.
Resp: 37.5 ± 2.1 ng/mL

---

# protocol_notes: in vivo
# stated_conditions: male, Sprague-Dawley, rat, po, 10 g/kg
measure: half-life (h)
Give your result in h as a bare value.

Req: I have this compound here, O=C(O)c1cc(O)c(O)c(O)c1 , and I need its recorded half-life.
Resp: 1.51

---

# protocol_notes: in vivo
# stated_conditions: male, Sprague-Dawley, rat, po, 10 g/kg
measure: MRT inf (h)
Give your result in h as a bare value.

Req: I have this compound here, O=C(O)c1cc(O)c(O)c(O)c1 , and I need its recorded MRT inf.
Resp: 6.58

---

# protocol_notes: Stability of QC samples of the analytes in rat plasma under storage conditions
# Assay type: physicochemical
# stated_conditions: spiked 400 ng/mL, −80°C for 7 days, n = 6
Please respond with reported Measured concentration after storage for every item in the list.
Give your result in ng/mL as a bare value.

Req: I have this molecule here, O=C(O[C@@H]1O[C@@H]2COC(=O)c3cc(O)c(O)c(O)c3-c3c(cc(O)c(O)c3O)C(=O)O[C@H]([C@H]1O)[C@@H]2O)c1cc(O)c(O)c(O)c1 , and I need its recorded Measured concentration after storage.
Resp: 395.6

Req: I have this molecule here, O=C(O)C[C@@H]1C(=O)O[C@H]2[C@H](OC(=O)c3cc(O)c(O)c(O)c3)[C@@H](OC(=O)c3cc(O)c(O)c4c3[C@H]1[C@H](O)C(=O)O4)[C@H](OC(=O)c1cc(O)c(O)c(O)c1)O[C@@H]2COC(=O)c1cc(O)c(O)c(O)c1 , and I need its recorded Measured concentration after storage.
Resp: 373.5

Req: I have this molecule here, O=C(O)c1cc(O)c(O)c(O)c1 , and I need its recorded Measured concentration after storage.
Resp: 358.6

Req: I have this molecule here, O=C(O)C[C@H](C(=O)O)[C@H]1c2c(cc(O)c(O)c2O)C(=O)O[C@@H]1C(=O)O , and I need its recorded Measured concentration after storage.
Resp: 364.4

---

# protocol_notes: Pharmacokinetic study in rats after oral administration of TC extracts (UPLC-MS/MS of plasma)
# stated_conditions: male, Sprague-Dawley, rat, plasma, po, 10 g/kg
measure: AUC(0-inf) (ng·h/mL)
Give your result in ng·h/mL as a bare value.

Req: I have this compound here, O=c1oc2c(O)c(O)cc3c(=O)oc4c(O)c(O)cc1c4c23 , and I need its recorded AUC(0-inf).
Resp: 7340

Req: I have this compound here, O=C(O)C[C@@H]1C(=O)O[C@H]2[C@@H]3OC(=O)c4cc(O)c(O)c(O)c4-c4c(cc(O)c(O)c4O)C(=O)OC[C@H]2O[C@@H](OC(=O)c2cc(O)c(O)c(O)c2)[C@@H]3OC(=O)c2cc(O)c(O)c3c2[C@H]1[C@H](O)C(=O)O3 , and I need its recorded AUC(0-inf).
Resp: 234000

Req: I have this compound here, O=C(O[C@@H]1O[C@@H]2COC(=O)c3cc(O)c(O)c(O)c3-c3c(cc(O)c(O)c3O)C(=O)O[C@H]([C@H]1O)[C@@H]2O)c1cc(O)c(O)c(O)c1 , and I need its recorded AUC(0-inf).
Resp: 17400

Req: I have this compound here, O=C(O)C[C@@H]1C(=O)O[C@H]2[C@H](OC(=O)c3cc(O)c(O)c(O)c3)[C@@H](OC(=O)c3cc(O)c(O)c4c3[C@H]1[C@H](O)C(=O)O4)[C@H](OC(=O)c1cc(O)c(O)c(O)c1)O[C@@H]2COC(=O)c1cc(O)c(O)c(O)c1 , and I need its recorded AUC(0-inf).
Resp: 41900

Req: I have this compound here, CCOC(=O)c1cc(O)c(O)c(O)c1 [Ethyl gallate, ethyl gallate] , and I need its recorded AUC(0-inf).
Resp: 16.9

Req: I have this compound here, O=C(O)c1ccc(O)c(O)c1 , and I need its recorded AUC(0-inf).
Resp: 70.8

---

# protocol_notes: Pharmacokinetic study in rats after oral administration of TC extracts (UPLC-MS/MS of plasma)
# stated_conditions: male, Sprague-Dawley, rat, plasma, po, 10 g/kg
Please respond with reported log10 of Cmax for every item in the list.
Note: values are log10 of Cmax expressed in ng/mL.

Req: I have this compound here, O=c1oc2c(O)c(O)cc3c(=O)oc4c(O)c(O)cc1c4c23 , and I need its recorded log10 of Cmax.
Resp: 2.59

Req: I have this compound here, O=C(O)c1ccc(O)c(O)c1 , and I need its recorded log10 of Cmax.
Resp: 1.39

Req: I have this compound here, O=C(O)C[C@@H]1C(=O)O[C@H]2[C@H](OC(=O)c3cc(O)c(O)c(O)c3)[C@@H](OC(=O)c3cc(O)c(O)c4c3[C@H]1[C@H](O)C(=O)O4)[C@H](OC(=O)c1cc(O)c(O)c(O)c1)O[C@@H]2COC(=O)c1cc(O)c(O)c(O)c1 , and I need its recorded log10 of Cmax.
Resp: 2.93

Req: I have this compound here, O=C(O)C[C@@H]1C(=O)O[C@H]2[C@@H]3OC(=O)c4cc(O)c(O)c(O)c4-c4c(cc(O)c(O)c4O)C(=O)OC[C@H]2O[C@@H](OC(=O)c2cc(O)c(O)c(O)c2)[C@@H]3OC(=O)c2cc(O)c(O)c3c2[C@H]1[C@H](O)C(=O)O3 , and I need its recorded log10 of Cmax.
Resp: 3.70

Req: I have this compound here, O=C(O[C@@H]1O[C@@H]2COC(=O)c3cc(O)c(O)c(O)c3-c3c(cc(O)c(O)c3O)C(=O)O[C@H]([C@H]1O)[C@@H]2O)c1cc(O)c(O)c(O)c1 , and I need its recorded log10 of Cmax.
Resp: 2.77

Req: I have this compound here, CCOC(=O)c1cc(O)c(O)c(O)c1 [Ethyl gallate, ethyl gallate] , and I need its recorded log10 of Cmax.
Resp: 1.10
